meta.source: patent US20250163056A1

runDescription: Photostability, percentage remaining undegraded under illumination or in the dark
conditionInfo: percentage remaining undegraded after 24 hours illumination
testReadout: Photostability 24 hours (%)
Please reply with the bare figure in % and do not write the unit itself.

These recorded examples may help you get a feel for the data.
Cc1ccc2c(c1)C(=O)[C@]1(O)CCN(c3ccc4nc(C#N)ccc4c3)C1=N2 :: 83.9
Cc1cc2c(cc1C)C(=O)[C@]1(O)CCN(c3cnc(C#N)c(C)c3)C1=N2 :: 83
Cc1cc2c(s1)C(=O)[C@]1(O)CCN(c3cccc(Br)c3)C1=N2 :: 93.4

For this molecule ( Cc1cc2c(cc1C)C(=O)[C@]1(O)CCN(c3ccc4c(c3)CCCC4)C1=N2 ), measured Photostability 24 hours is 1
